I'd be grateful if you could share measured pIC50 for these entries.
# Tested on: Phosphorylation of ERK1/2 in MIA PaCa-2 cells
# assay-name: Phospho-ERK1/2 MSD assay in MIA PaCa-2 cells
# Type: cell-based
# measurement-conditions: Homo sapiens, MIA PaCa-2, 4 h, read-out: p-ERK IC50 (4 h; MIA PaCa-2), 4 h compound treatment
Just so you know, pIC50 here is -log10 of the concentration in molar units; reply with that number alone.

Q: Which pIC50 reading was recorded for the compound C=CC(=O)N1CCN(c2nc(=O)n(-c3ccccc3C(C)C)c3nc(-c4ccccc4Cl)c(Cl)cc23)[C@@H](C)C1 ?
A: 7.08

Q: Next compound: C=CC(=O)N1CCN(c2nc(=O)n(-c3c(CC)cccc3CC)c3nc(-c4ccccc4O)c(Cl)cc23)[C@@H](C)C1
A: 6.87

Q: Next compound: C=CC(=O)N1CCN(c2nc(=O)n(CC(C)(C)C)c3nc(-c4c(O)cccc4F)c(Cl)cc23)CC1
A: 6.35

Q: Next compound: C=CC(=O)N1CCN(c2nc(=O)n(C(CC)CC)c3nc(-c4c(C)ccc5[nH]ncc45)c(Cl)cc23)[C@@H](C)C1
A: 6.67

Q: Next compound: C=CC(=O)N1CCN(c2nc(=O)n(CC(C)(C)C)c3cc(-c4c(O)cccc4F)c(Cl)cc23)CC1
A: 6.53

Q: Next compound: C=CC(=O)N1CCN(c2nc(=O)n(C(C(C)C)C(C)C)c3nc(-c4ccccc4F)c(Cl)cc23)CC1
A: 6.15

----------
# tgt: GDP-bound KRAS protein (aa 1-169), containing both G12C and C118A amino acid substitutions (Homo sapiens, UniProt P01116, C118A/G12C)
# Sequence (P01116 1-169 isoform P01116-2 G12C/C118A): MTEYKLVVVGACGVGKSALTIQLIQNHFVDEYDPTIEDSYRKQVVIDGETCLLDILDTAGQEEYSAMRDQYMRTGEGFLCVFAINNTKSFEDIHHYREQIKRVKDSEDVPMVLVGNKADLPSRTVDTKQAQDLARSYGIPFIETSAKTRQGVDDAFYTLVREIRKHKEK
# assay-name: Coupled nucleotide exchange assay (SOS-mediated, AlphaScreen)
# Format: biochemical
# measurement-conditions: 5 min compound pre-incubation
assay-metric: Coupled exchange IC50 (5 min)

Q: Which Coupled exchange IC50 (5 min) reading was recorded for the compound C=CC(=O)N1CCN(c2nc(=O)n(-c3c(C)ccnc3C(C)C)c3nc(-c4cc(N)ccc4F)c(F)cc23)[C@@H](C)C1 (single isomer, unassigned) [Example 58-6-2] ?
A: 0.236 | nda μM

Q: Next compound: C=CC(=O)N1CCN(c2nc(=O)n(-c3c(C)ccnc3C(C)C)c3nc(-c4c(O)cccc4F)c(F)cc23)[C@H](C(F)F)C1 (single isomer, unassigned) [Example 75-9-1]
A: 1.87 | nda μM

Q: Next compound: C=CC(=O)N1CCN(c2nc(=O)n(-c3c(C)noc3C(C)C)c3nc(-c4c(O)cccc4F)c(Cl)cc23)[C@@H](C)C1 [Example 55-1]
A: 0.124 | nda μM

Q: Next compound: C=CC(=O)N1CCN(c2nc(=O)n(-c3ccccc3-c3ccccc3)c3nc(-c4c(O)cccc4F)c(Cl)cc23)[C@@H](C)C1 [Example 54-74]
A: 0.582 | nda μM

Q: Next compound: C=CC(=O)N1CCN(c2nc(=O)n(-c3c(C)cccc3C(C)C)c3nc(-c4c(O)cccc4Cl)c(F)cc23)[C@@H](C)C1 (single isomer, unassigned) [Example 68-1-1]
A: 0.084 | nda μM

----------
I'd be grateful if you could share measured Coupled exchange IC50 (5 min) for these entries.
# tgt: GDP-bound KRAS protein (aa 1-169), containing both G12C and C118A amino acid substitutions (Homo sapiens, UniProt P01116, C118A/G12C)
# assay-name: Coupled nucleotide exchange assay (SOS-mediated, AlphaScreen)
# Format: biochemical
# measurement-conditions: 5 min compound pre-incubation

Q: Which Coupled exchange IC50 (5 min) reading was recorded for the compound C=CC(=O)N1CCN(c2nc(=O)n(-c3ccccc3C(C)C)c3nc(-c4ccccc4F)c(C)cc23)[C@@H](C)C1 [Example 74-1] ?
A: 0.951 | nda μM

Q: Next compound: C=CC(=O)N1CCN(c2nc(=O)n(-c3c(C)ncnc3C3CC3)c3nc(-c4ccccc4F)c(Cl)cc23)[C@@H](C)C1 (single isomer, unassigned) [Example 60-30-2]
A: 0.108 | nda μM

Q: Next compound: C=CC(=O)N1CCN(c2nc(=O)n(-c3cccnc3C(C)C)c3nc(-c4c(O)cccc4F)c(Cl)cc23)[C@@H](C)C1 (single isomer, unassigned) [Example 54-11-1]
A: 0.049 | nda μM

Q: Next compound: C=CC(=O)N1CCN(c2nc(=O)n(-c3ccccc3C(C)(C)C)c3nc(-c4ccccc4F)c(F)cc23)[C@@H](C)C1 [Example 58-17]
A: 1.68 | nda μM

Q: Next compound: C=CC(=O)N1CCN(c2nc(=O)n(-c3ccccc3C(C)C)c3nc(N4CCCCC4)c(Cl)cc23)[C@@H](C)C1 (single isomer, unassigned) [Example 69-1-1]
A: 44.1 | nda μM

Q: Next compound: C=CC(=O)N1CCN(c2nc(=O)n(-c3scnc3C(C)C)c3cc(-c4ccccc4F)c(Cl)cc23)[C@@H](C)C1
A: 0.051 | nda μM

Q: Next compound: C=CC(=O)N1CCN(c2nc(=O)n(-c3ccccc3S(F)(F)(F)(F)F)c3nc(-c4c(O)cccc4F)c(Cl)cc23)[C@@H](C)C1 (single isomer, unassigned) [Example 56-1-1]
A: 5.29 | nda μM

Q: Next compound: C=CC(=O)N1CCN(c2nc(=O)n(-c3ccccc3C(C)(C)C)c3nc(-c4ccccc4F)c(F)cc23)[C@@H](C)C1 (single isomer, unassigned) [Example 58-17-2]
A: 0.849 | nda μM

Q: Next compound: C=CC(=O)N1CCN(c2nc(=O)n(-c3ccccc3C(C)C)c3nc(-c4ccccc4F)c(OC)nc23)[C@@H](C)C1
A: 1.32 | nda μM

Q: Next compound: C=CC(=O)N1CCN(c2nc(=O)n(-c3c(C)cccc3CC)c3nc(-c4ccccc4F)c(Cl)cc23)[C@@H](C)C1 (single isomer, unassigned) [Example 55-9-2]
A: 0.158 | nda μM

Q: Next compound: C=CC(=O)N1CCN(c2nc(=O)n(-c3c(CC)cccc3CC)c3nc(N4CC[C@H](OC)C4)c(Cl)cc23)[C@@H](C)C1
A: 40.7 | nda μM

Q: Next compound: C=CC(=O)N1CCN(c2nc(=O)n(-c3ccccc3C(C)C)c3nc(-c4ncccc4Cl)c(Cl)cc23)[C@@H](C)C1
A: 1.19 | nda μM

----------
# tgt: GDP-bound KRAS protein (aa 1-169), containing both G12C and C118A amino acid substitutions (Homo sapiens, UniProt P01116, C118A/G12C)
# assay-name: Coupled nucleotide exchange assay (SOS-mediated, AlphaScreen)
# Format: biochemical
# measurement-conditions: 5 min compound pre-incubation
assay-metric: Coupled exchange IC50 (5 min)

Q: Which Coupled exchange IC50 (5 min) reading was recorded for the molecule C=CC(=O)N1CCN(c2nc(=O)n(-c3ncccc3C(C)C)c3nc(-c4c(O)cccc4F)c(F)cc23)[C@@H](C)C1 ?
A: 0.452 | nda μM

Q: Next molecule: C=CC(=O)N1CCN(c2nc(=O)n(-c3ccccc3C(C)C)c3nc(-c4cc(OC)ccc4F)c(Cl)cc23)[C@@H](C)C1
A: 0.269 | nda μM

Q: Next molecule: C=CC(=O)N1CCN(c2nc(=O)n(CC(C)(C)C(F)(F)F)c3nc(-c4ccccc4F)c(Cl)cc23)[C@@H](C)C1
A: 1.24 µM

----------
I'd be grateful if you could share measured Coupled exchange IC50 (5 min) for these entries.
# tgt: GDP-bound KRAS protein (aa 1-169), containing both G12C and C118A amino acid substitutions (Homo sapiens, UniProt P01116, C118A/G12C)
# assay-name: Coupled nucleotide exchange assay (SOS-mediated, AlphaScreen)
# Type: biochemical
# measurement-conditions: 5 min compound pre-incubation

Q: Which Coupled exchange IC50 (5 min) reading was recorded for the molecule C=CC(=O)N1CCN(c2nc(=O)n(-c3nccnc3C(C)(C)C)c3nc(-c4c(O)cccc4F)c(Cl)cc23)[C@@H](C)C1 (single isomer, unassigned) [Example 55-23-2] ?
A: 0.062 | nda μM

Q: Next molecule: C=CC(=O)N1CCN(c2nc(=O)n(-c3c(CC)cccc3CC)c3nc(N4CCOC5(CCCC5)C4)c(Cl)cc23)[C@@H](C)C1 [Example 66-17]
A: 75.5 | nda μM

Q: Next molecule: C=CC(=O)N1CCN(c2nc(=O)n(-c3ccnn3C3CCC3)c3nc(-c4c(O)cccc4F)c(Cl)cc23)[C@@H](C)C1 [Example 54-28]
A: 0.19 | nda μM

Q: Next molecule: C=CC(=O)N1CCN(c2nc(=O)n(-c3c(CC)cccc3CC)c3nc(N4CC[C@H](F)C4)c(Cl)cc23)[C@@H](C)C1 [Example 66-6]
A: 14.9 | nda μM

Q: Next molecule: C=CC(=O)N1CCN(c2nc(=O)n(-c3c(CC)cccc3CC)c3nc(N4CCOC[C@H]4C)c(Cl)cc23)[C@@H](C)C1 [Example 66-33]
A: 15.9 | nda μM

Q: Next molecule: C=CC(=O)N1CCN(c2nc(=O)n(-c3c(C)cc(C(=O)O)cc3C(C)C)c3nc(-c4ccccc4F)c(Cl)cc23)[C@@H](C)C1 [Example 141]
A: 0.393 | nda μM

Q: Next molecule: C=CC(=O)N1CCN(c2nc(=O)n(C3CCC34CCCC4)c3nc(-c4c(O)cccc4F)c(Cl)cc23)[C@@H](C)C1 (stereo partly drawn) [Example 60-9]
A: 0.484 | nda μM

Q: Next molecule: C=CC(=O)N1CCN(c2nc(=O)n(-c3c(C4CC4)ncnc3C3CC3)c3nc(-c4ccccc4F)c(F)cc23)[C@@H](C)C1 [Example 59-5]
A: 0.501 | nda μM

Q: Next molecule: C=CC(=O)N1CCN(c2nc(=O)n(-c3cccnc3C(C)C)c3nc(-c4c(O)cccc4F)c(Cl)cc23)[C@@H](C)C1 [Example 54-11]
A: 0.069 | nda μM

Q: Next molecule: C=CC(=O)N1CCN(c2nc(=O)n(-c3c(OC)cccc3C(C)C)c3nc(-c4c(O)cccc4F)c(Cl)cc23)[C@@H](C)C1 [Example 54-73]
A: 0.062 | nda μM

Q: Next molecule: C=CC(=O)N1CCN(c2nc(=O)n(-c3c(C)cccc3C3CC3)c3nc(-c4ccccc4F)c(Cl)cc23)[C@@H](C)C1 [Example 56-5]
A: 0.433 | nda μM

Q: Next molecule: C=CC(=O)N1CCN(c2nc(=O)n(-c3c(C)ccnc3CC)c3nc(-c4ccccc4F)c(F)cc23)[C@@H](C)C1 (single isomer, unassigned) [Example 57-16-2]
A: 7.56 | nda μM
